Every entry's value here was drawn from ChEMBL document CHEMBL6083248.

tested on: A549; test: Antiproliferative activity against human A549 cells assessed as inhibition of cell growth incubated for 48 hrs by MTT assay; format: functional, cell-based; details: A549, 48 h
measurement-type: IC50 (µM)

CN(C)CCn1cc2cc3c4ccccc4n(Cc4ccccc4)c3c[n+]2c1 = 11.7

A: CN(C)c1ccc(-n2cc3cc4c5ccccc5n(Cc5ccccc5)c4c[n+]3c2)cc1
B: Fc1ccc(Cn2c3ccccc3c3cc4cn(-c5ccccc5)c[n+]4cc32)cc1
C: CCCCn1c2ccccc2c2cc3cn(-c4ccccc4)c[n+]3cc21
Number of compounds to sort: 3. Sort criterion: IC50, ascending. Hello, could you send the labels back in the order asked? Thank you. A, C, B

P: c1ccc(Cn2c3ccccc3c3cc4cn(-c5ccccc5)c[n+]4cc32)cc1
Q: FC(F)(F)c1ccc(-n2cc3cc4c5ccccc5n(Cc5ccccc5)c4c[n+]3c2)cc1
R: COc1ccc(Cn2c3ccccc3c3cc4cn(-c5ccc(C(F)(F)F)cc5)c[n+]4cc32)cc1
Number of compounds to sort: 3. Sort criterion: IC50, ascending. Hello, could you send the labels back in the order asked? Thank you. P, R, Q

P: Cn1c2ccccc2c2cc3cn(-c4cccc(C(F)(F)F)c4)c[n+]3cc21
Q: CN(C)CCn1cc2cc3c4ccccc4n(CCCc4ccccc4)c3c[n+]2c1
Form field 'greater IC50' accepts P or Q ; which applies? Could you answer with the label of the item you picked? P
(P: 21.8 µM, Q: 10.6 µM)

---

test system: MCF7; assay: Antiproliferative activity against human MCF7 cells assessed as inhibition of cell growth incubated for 48 hrs by MTT assay; assay type: functional, cell-based; conditions: MCF7, 48 h
measurement-type: IC50 (µM)

Before answering, review these 2 worked examples.
CCCCn1c2ccccc2c2cc3cn(-c4ccc(C(F)(F)F)cc4)c[n+]3cc21 = 12.1
Clc1cccc(Cn2c3ccccc3c3cc4cn(-c5ccccc5)c[n+]4cc32)c1 = 10.3

A: FC(F)(F)c1cccc(-n2cc3cc4c5ccccc5n(Cc5ccccc5)c4c[n+]3c2)c1
B: COc1ccc(Cn2c3ccccc3c3cc4cn(-c5ccc(N(C)C)cc5)c[n+]4cc32)cc1
Form field 'greater IC50' accepts A or B ; which applies? Could you answer with the label of the item you picked? A
(A: 11.5 µM, B: 5.1 µM)

---

system: A549; assay: Antiproliferative activity against human A549 cells assessed as inhibition of cell growth incubated for 48 hrs by MTT assay; assay type: functional, cell-based; settings: A549, 48 h
measurement-type: IC50 (µM)

Before answering, review these 3 worked examples.
FC(F)(F)c1ccc(-n2cc3cc4c5ccccc5n(CCCc5ccccc5)c4c[n+]3c2)cc1 = 23.9
CCCCn1c2ccccc2c2cc3cn(-c4ccc(C(F)(F)F)cc4)c[n+]3cc21 = 2.4
FC(F)(F)c1cccc(-n2cc3cc4c5ccccc5n(Cc5ccccc5)c4c[n+]3c2)c1 = 20.9

P: Clc1cccc(Cn2c3ccccc3c3cc4cn(Cc5ccccc5)c[n+]4cc32)c1
Q: CCCCn1c2ccccc2c2cc3cn(-c4ccc5ccccc5c4)c[n+]3cc21
Form field 'greater IC50' accepts P or Q ; which applies? Could you answer with the label of the item you picked? P
(P: 22.6 µM, Q: 8.3 µM)

1: Cn1c2ccccc2c2cc3cn(-c4ccccc4)c[n+]3cc21
2: FC(F)(F)c1ccc(-n2cc3cc4c5ccccc5n(Cc5cccc(Cl)c5)c4c[n+]3c2)cc1
Form field 'greater IC50' accepts 1 or 2 ; which applies? Could you answer with the label of the item you picked? 2
(2: 12.1 µM, 1: 7.8 µM)

1: Clc1cccc(Cn2c3ccccc3c3cc4cn(-c5ccccc5)c[n+]4cc32)c1
2: COc1ccc(Cn2c3ccccc3c3cc4cn(-c5ccc(N(C)C)cc5)c[n+]4cc32)cc1
Between the entries labeled 1 and 2 , whose measured IC50 is lower? Could you answer with the label of the item you picked? 1
